Test system: folate receptor-positive KB cells
Details: read-out: 50% competition; competed group (excess folic acid)
Procedure: Inhibition of Cellular DNA Synthesis. The compounds described herein were evaluated using an in vitro cytotoxicity assay that predicts the ability of the drug to inhibit the growth of folate receptor-positive KB cells. […] Cell viability was assessed using a ^3H-thymidine incorporation assay. In vitro test against the various cancer cell lines. […] Final tabulated results are expressed as the percentage of ^3H-thymidine incorporation relative to untreated controls. […]
MEASUREMENT_NAME: IC50 (nM)
Numeric only. Scale: nM

**Query** For the compound shown here, N=c1[nH]c(N)nc2ncc(CNc3ccc(C(=O)N[C@@H](CCC(=O)NNC(=O)OCCSSC[C@H](NC(=O)[C@H](CCC(=O)NC[C@H](O)[C@@H](O)[C@H](O)[C@H](O)CO)NC(=O)[C@H](CCC(=O)O)NC(=O)[C@H](CCC(=O)NC[C@H](O)[C@@H](O)[C@H](O)[C@H](O)CO)NC(=O)[C@H](CCC(=O)O)NC(=O)[C@H](CCC(=O)NC[C@H](O)[C@@H](O)[C@H](O)[C@H](O)CO)NC(=O)CC[C@H](NC(=O)c4ccc(NCc5cnc6nc(N)[nH]c(=O)c6n5)cc4)C(=O)O)C(=O)O)C(=O)O)cc3)nc12 [EC0531, reference compound] , give the reported IC50.
**Result** 355
